target: MBP-MCL1 (Homo sapiens, UniProt Q07820, K194A/K197A/R201A); construct: 6xHis-TEV tag cleaved, MBP kept; E. coli; experiment: isothermal titration calorimetry; crystal structure […] Å (soak)
Sequence (Q07820 173-321 K194A/K197A/R201A): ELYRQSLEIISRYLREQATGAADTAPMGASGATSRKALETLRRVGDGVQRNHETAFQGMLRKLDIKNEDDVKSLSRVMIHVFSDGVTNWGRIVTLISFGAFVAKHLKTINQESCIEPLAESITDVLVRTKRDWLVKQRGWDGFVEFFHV
measured metric: Kd (µM)
Supply the numeric figure in µM, leaving out any unit text.

// query Using the record for O=C(O)c1sc2cc(F)ccc2c1Cl , report its Kd.
// result 93
